Data origin: patent US6515124B2

- target: LFA-1 binding to immobilized ICAM-1 (Homo sapiens, UniProt P05107+P20701)
- Construct: made in house; host or cells: transfected 293 cells (LFA-1)
- Sequence (P20701 26-1170): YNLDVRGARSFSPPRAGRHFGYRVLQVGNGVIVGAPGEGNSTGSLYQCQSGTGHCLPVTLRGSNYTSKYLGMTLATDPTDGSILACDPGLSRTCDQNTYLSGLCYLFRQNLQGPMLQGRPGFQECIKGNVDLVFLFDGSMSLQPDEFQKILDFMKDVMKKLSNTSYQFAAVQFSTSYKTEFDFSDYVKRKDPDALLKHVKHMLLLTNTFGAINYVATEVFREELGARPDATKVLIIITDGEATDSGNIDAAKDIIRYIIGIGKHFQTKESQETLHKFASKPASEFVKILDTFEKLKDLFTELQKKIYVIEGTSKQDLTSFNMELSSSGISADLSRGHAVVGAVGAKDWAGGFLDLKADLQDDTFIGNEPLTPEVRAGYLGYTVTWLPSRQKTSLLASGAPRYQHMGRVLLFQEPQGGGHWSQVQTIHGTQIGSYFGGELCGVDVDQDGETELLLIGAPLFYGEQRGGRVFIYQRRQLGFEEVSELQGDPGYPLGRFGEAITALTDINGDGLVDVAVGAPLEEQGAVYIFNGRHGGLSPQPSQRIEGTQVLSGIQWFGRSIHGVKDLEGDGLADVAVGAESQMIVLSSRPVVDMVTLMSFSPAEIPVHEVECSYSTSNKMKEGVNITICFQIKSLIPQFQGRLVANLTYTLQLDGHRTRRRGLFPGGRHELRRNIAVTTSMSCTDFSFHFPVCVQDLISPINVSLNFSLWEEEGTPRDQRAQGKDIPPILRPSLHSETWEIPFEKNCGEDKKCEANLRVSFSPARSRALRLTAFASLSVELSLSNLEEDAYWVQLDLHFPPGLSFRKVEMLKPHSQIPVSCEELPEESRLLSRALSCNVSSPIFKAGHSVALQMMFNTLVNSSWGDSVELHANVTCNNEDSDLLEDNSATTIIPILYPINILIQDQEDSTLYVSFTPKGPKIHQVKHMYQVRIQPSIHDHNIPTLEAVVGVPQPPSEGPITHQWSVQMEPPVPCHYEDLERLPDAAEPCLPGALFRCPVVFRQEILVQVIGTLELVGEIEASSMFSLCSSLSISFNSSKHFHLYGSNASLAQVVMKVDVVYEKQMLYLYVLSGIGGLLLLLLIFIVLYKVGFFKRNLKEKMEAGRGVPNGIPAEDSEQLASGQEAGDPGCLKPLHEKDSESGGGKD
- Sequence (P05107 23-769): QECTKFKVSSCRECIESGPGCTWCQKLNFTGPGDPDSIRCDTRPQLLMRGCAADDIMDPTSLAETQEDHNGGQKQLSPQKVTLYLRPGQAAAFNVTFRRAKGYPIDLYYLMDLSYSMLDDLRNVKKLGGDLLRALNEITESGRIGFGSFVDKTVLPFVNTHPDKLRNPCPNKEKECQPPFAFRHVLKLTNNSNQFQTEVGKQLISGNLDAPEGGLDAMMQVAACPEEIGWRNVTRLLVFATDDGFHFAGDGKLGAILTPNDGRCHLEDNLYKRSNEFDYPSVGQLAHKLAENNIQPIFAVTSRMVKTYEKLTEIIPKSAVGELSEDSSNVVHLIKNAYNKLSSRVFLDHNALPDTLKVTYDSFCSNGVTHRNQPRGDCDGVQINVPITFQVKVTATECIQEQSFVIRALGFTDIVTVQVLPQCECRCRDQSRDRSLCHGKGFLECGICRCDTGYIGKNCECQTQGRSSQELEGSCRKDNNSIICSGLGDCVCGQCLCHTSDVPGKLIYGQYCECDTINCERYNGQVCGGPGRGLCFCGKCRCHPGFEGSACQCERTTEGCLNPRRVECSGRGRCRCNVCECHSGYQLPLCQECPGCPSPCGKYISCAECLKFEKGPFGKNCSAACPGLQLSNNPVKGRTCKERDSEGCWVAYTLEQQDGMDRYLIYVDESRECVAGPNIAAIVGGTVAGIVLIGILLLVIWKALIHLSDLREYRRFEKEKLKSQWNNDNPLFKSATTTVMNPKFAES
- protocol.details: LFA-1/ICAM-1 Protein-Protein Assay (solid-phase ELISA)
- reported.conditions: 5dICAM-Ig coated plates; membrane-bound LFA-1 from transfected 293 cells
outcome.measure: IC50 (nM)

compound.string	IC50, nM
O=C(O)/C(=C/c1ccc2ncsc2c1)NC(=O)c1ccc(C(=O)NCc2cccc(O)c2)cc1Cl	0.94
O=C(O)/C(=C/c1ccc2ccccc2c1)NC(=O)c1ccc(C(=O)NCc2cccc(O)c2)cc1Br	0.62
Cc1nc(C(C)C)sc1/C=C(\NC(=O)c1ccc(C(=O)NCc2cccc(O)c2)cc1Cl)C(=O)O	3.03
C[C@@H](NC(=O)c1ccc(C(=O)N/C(=C\c2cccs2)C(=O)O)c(Cl)c1)c1cccc2ccccc12	20.4
O=C(O)/C(=C/c1cccs1)NC(=O)c1ccc(C(=O)NCc2cccc3[nH]ccc23)cc1Cl	56.3

[A] O=C(O)/C(=C/c1ccncc1)NC(=O)c1ccc(C(=O)NCc2cccc(O)c2)cc1Br
[B] CC/C=C(\NC(=O)c1ccc(C(=O)NCc2cccc(O)c2)cc1Br)C(=O)O
Exercise: compare A and B ; which one has the greater IC50? Kindly give the label for the entry you pick.
B
